Measured Relative cAMP EC50 of individual entries
- target.or.test.system: T1, human GIP receptor (human) (UniProt P48546)
- T1 sequence (looked up): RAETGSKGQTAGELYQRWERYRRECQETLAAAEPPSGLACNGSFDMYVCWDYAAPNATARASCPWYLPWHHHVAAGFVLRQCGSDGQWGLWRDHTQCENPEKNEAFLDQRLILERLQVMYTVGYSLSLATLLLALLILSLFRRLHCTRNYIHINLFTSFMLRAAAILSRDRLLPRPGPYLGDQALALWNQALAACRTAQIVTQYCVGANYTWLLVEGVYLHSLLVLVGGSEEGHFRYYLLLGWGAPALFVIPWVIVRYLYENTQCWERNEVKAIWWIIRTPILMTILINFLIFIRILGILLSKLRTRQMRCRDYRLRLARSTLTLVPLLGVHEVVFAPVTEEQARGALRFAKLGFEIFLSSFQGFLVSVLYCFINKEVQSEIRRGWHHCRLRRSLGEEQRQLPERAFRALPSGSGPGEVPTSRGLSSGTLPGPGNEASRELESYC
- procedure.details: cell-based or functional assay
Non-standard residues stand in square brackets, D forms with d. No end group written: not given here. αMePhe(2-F) = C[C@](N)(Cc1ccccc1F)C(=O)O; Aib = CC(C)(N)C(=O)O
// units = nM; emit number, no label

Field: example entries. Status: answers known.
binder	Relative cAMP EC50 / nM
YXQGTXTSDXXIXLDXKAQXEFIEXLVEGGPSSGAPPPEGE (not fully specified; non-natural residues, lysine acylation, C-terminal amide; synthetic construct; SITE 2: note = 2-Aminoisobutyric Acid; SITE 6: note = alpha-methyl-2-fluoro-L-phenylalanine; SITE 10: note = 3-(4-Pyridyl)-L-alanine; SITE 11: note = alpha-methyl-L-serine; SITE 13: note = alpha-methyl-leucine; SITE 16: note = L-ornithine; SITE 17: note = Lysine is chemically mo) [Example 1158]	0.0126
Y[Aib]QGT[αMePhe(2-F)]TSDFSILLDKQAQKAFIEYLLEGGPSSGEPPPSEG-NH2 (not fully specified (residue 20)) [Example 346]	0.0738

# input for lookup
IN: Any idea what Relative cAMP EC50 was measured for YXQGTFTSDXSQXLDKKAQXAFIEWLIEGGPSSGAPPPSGS (synthetic construct; SITE 2: note = 2-Aminoisobutyric Acid; SITE 10: note = 3-(4-Pyridyl)-L-alanine; SITE 13: note = alpha-methyl-leucine; SITE 17: note = Lysine is chemically modified through conjugation of the epsilon-amino group of the Lysine side chain with (gamma-Glu)2-CO-(CH2)16-CO2H; SITE 20:) [Example 872] ?
OUT: 0.205
